# target.entity: UniProt:Q13547
# assay.procedure: HDAC inhibition assay, MiDAC complex (Table 1)
# Format: biochemical
reported.endpoint: IC50 (µM)

Solved cases (2 shown):
Cc1ncsc1-c1ccc(CNC(=O)[C@@H]2C[C@@H](O)CN2C(=O)[C@@H](NC(=O)CCCCCCCC(=O)Nc2ccc(C(=O)Nc3ccccc3N)cc2)C(C)(C)C)cc1 [PROTAC6] : 1.69
Cc1ncsc1-c1ccc(CNC(=O)[C@@H]2C[C@@H](O)CN2C(=O)[C@@H](NC(=O)COCCCCCCCCC(=O)Nc2ccc(C(=O)Nc3ccccc3N)cc2)C(C)(C)C)cc1 [PROTAC13] : 1.43

(I) Cc1ncsc1-c1ccc(CNC(=O)[C@@H]2C[C@@H](O)CN2C(=O)[C@@H](NC(=O)CCCCCCCCCCC(=O)Nc2ccc(C(=O)Nc3ccccc3N)cc2)C(C)(C)C)cc1 [PROTAC4]
(II) Cc1ncsc1-c1ccc(CNC(=O)[C@@H]2C[C@@H](O)CN2C(=O)[C@@H](NC(=O)COCCCCCCOCC(=O)Nc2ccc(C(=O)Nc3ccccc3N)cc2)C(C)(C)C)cc1 [PROTAC12]
Hi, I'm comparing I with II and wondering which one has the bigger number for IC50. Any idea? # respond with the chosen item's label
II
(II: 5.15 µM, I: 0.336 µM)

* * *

# target.entity: LSD1-CoREST-HDAC1 complex (Homo sapiens)
# Sequence (Q13547 whole entry, other chains not shown): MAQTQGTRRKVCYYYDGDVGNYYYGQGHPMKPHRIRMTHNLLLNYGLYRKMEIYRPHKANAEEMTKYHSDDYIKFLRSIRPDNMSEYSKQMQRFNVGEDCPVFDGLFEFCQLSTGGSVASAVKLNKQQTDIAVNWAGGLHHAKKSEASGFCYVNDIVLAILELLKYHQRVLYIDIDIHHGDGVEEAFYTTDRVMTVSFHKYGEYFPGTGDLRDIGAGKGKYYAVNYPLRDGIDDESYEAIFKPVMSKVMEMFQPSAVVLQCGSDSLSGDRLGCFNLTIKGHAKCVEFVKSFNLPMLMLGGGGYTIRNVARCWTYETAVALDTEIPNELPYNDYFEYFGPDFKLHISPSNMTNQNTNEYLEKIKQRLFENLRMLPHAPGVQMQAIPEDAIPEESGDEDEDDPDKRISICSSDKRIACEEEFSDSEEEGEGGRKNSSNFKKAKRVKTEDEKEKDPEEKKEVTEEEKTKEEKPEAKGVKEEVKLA
# Sequence (Q9UKL0 86-485 partner limits assumed, other chains not shown): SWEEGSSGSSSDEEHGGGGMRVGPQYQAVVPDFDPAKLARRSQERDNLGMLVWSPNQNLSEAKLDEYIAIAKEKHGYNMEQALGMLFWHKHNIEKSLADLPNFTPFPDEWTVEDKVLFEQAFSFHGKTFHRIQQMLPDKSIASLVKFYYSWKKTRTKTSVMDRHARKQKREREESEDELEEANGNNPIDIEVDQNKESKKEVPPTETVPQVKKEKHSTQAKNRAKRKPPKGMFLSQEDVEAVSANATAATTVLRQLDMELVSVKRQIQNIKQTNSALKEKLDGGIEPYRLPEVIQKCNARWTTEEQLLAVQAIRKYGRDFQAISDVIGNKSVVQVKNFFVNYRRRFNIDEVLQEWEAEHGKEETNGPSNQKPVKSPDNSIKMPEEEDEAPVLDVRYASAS
# assay.procedure: fluorescent deacetylase assay with the LSD1-CoREST-HDAC1 complex (Example 2, FIG. 3A)
# measurement.context: LSD1-CoREST-HDAC1 complex in vitro
# Protocol: The inventors evaluated their preliminary PROTACs in vitro using an established fluorescent deacetylase assay with the LSD1-CoREST-HDAC1 complex. […] Inhibition tests against LSD1-HDAC-CoREST complex were performed using a two-enzyme fluorescence-based HDAC assay. […] The assays were performed in black 96-well plates with a reaction volume of 50 μL per well. […] HDAC Activity was calculated by subtracting the average blank fluorescence from the well fluorescence. […]
reported.endpoint: IC50 (µM)
Number in µM, nothing else.

Given the entry Cc1ncsc1-c1ccc(CNC(=O)[C@@H]2C[C@@H](O)CN2C(=O)[C@@H](NC(=O)CCCCCCCCCCC(=O)Nc2ccc(C(=O)Nc3ccccc3N)cc2)C(C)(C)C)cc1 [PROTAC4] , what IC50 was observed with LSD1-CoREST-HDAC1 complex (Homo sapiens)?
16.8

* * *

# target.entity: HDAC1 (Homo sapiens, UniProt Q13547)
# Construct: endogenous in cells; host or cells: HCT116
# Sequence (Q13547 whole entry): as the sequence (Q13547 whole entry, other chains not shown) above
# assay.procedure: HDAC1 degradation in HCT116 cells, quantitative western blot
# Assay type: cell-based
# measurement.context: HCT-116, 24 h; HCT116, screened at 0.1, 1 and 10 μM; maximum degradation irrespective of concentration; read-out: HDAC1 Degrader (% Degradation)
reported.endpoint: Dmax (%)

(a) Cc1ncsc1-c1ccc(CNC(=O)[C@@H]2C[C@@H](O)CN2C(=O)[C@@H](NC(=O)COCCCCCCCCC(=O)Nc2ccc(C(=O)Nc3ccccc3N)cc2)C(C)(C)C)cc1
(b) Cc1ncsc1-c1ccc(CNC(=O)[C@@H]2C[C@@H](O)CN2C(=O)[C@@H](NC(=O)COCCOCCOCC(=O)Nc2ccc(C(=O)Nc3cc(-c4cccs4)ccc3N)cc2)C(C)(C)C)cc1
(c) Cc1ncsc1-c1ccc(CNC(=O)[C@@H]2C[C@@H](O)CN2C(=O)[C@@H](NC(=O)CCCCCCCCCCC(=O)Nc2ccc(C(=O)Nc3ccccc3N)cc2)C(C)(C)C)cc1
# rank above entries by Dmax (max first, min last) Answer by listing the labels in the requested order.
c, a, b

* * *

# target.entity: SMRT (Homo sapiens, UniProt O15379)
# Sequence (Q9Y618 389-480 partner limits assumed, one chain of several): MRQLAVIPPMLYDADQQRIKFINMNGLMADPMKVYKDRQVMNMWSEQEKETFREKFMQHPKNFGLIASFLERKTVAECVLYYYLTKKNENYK
# assay.procedure: HDAC inhibition assay, SMRT complex (Table 1)
reported.endpoint: IC50 (µM)

Cc1ncsc1-c1ccc(CNC(=O)[C@@H]2C[C@@H](O)CN2C(=O)[C@@H](NC(=O)CCCCCCCCCCC(=O)Nc2ccc(C(=O)Nc3ccccc3N)cc2)C(C)(C)C)cc1 : 0.414

(A) Cc1ncsc1-c1ccc(CNC(=O)[C@@H]2C[C@@H](O)CN2C(=O)[C@@H](NC(=O)COCCCCCCCCC(=O)Nc2ccc(C(=O)Nc3ccccc3N)cc2)C(C)(C)C)cc1
(B) Cc1ncsc1-c1ccc(CNC(=O)[C@@H]2C[C@@H](O)CN2C(=O)[C@@H](NC(=O)CCCCCCCCCCC(=O)Nc2ccc(C(=O)Nc3ccc(F)cc3N)cc2)C(C)(C)C)cc1
Hi, I'm comparing A with B and wondering which one has the bigger number for IC50. Any idea? # respond with the chosen item's label
B

* * *

# target.entity: HDAC2 (Homo sapiens, UniProt Q92769)
# Construct: endogenous in cells; host or cells: HCT116
# Sequence (Q92769 whole entry): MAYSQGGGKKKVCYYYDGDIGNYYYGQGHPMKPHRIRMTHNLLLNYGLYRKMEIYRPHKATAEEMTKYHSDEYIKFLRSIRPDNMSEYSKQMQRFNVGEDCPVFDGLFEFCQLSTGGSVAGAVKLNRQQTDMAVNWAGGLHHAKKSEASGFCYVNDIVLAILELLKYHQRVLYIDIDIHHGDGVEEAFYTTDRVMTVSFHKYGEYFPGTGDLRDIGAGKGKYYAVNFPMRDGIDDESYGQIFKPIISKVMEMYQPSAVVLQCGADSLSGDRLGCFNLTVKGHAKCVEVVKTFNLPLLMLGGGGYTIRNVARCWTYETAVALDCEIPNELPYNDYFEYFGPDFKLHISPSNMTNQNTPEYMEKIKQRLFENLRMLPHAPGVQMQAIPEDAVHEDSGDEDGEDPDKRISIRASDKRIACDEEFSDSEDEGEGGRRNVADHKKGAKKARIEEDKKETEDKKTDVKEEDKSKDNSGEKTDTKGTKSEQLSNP
# assay.procedure: HDAC2 degradation in HCT116 cells, quantitative western blot
# Format: cell-based
# measurement.context: HCT-116, 24 h; HCT116, screened at 0.1, 1 and 10 μM; maximum degradation irrespective of concentration; read-out: HDAC 2 Degrader (% Degradation)
reported.endpoint: Dmax (%)

Solved cases (3 shown):
Cc1ncsc1-c1ccc(CNC(=O)[C@@H]2C[C@@H](O)CN2C(=O)[C@@H](NC(=O)COCCCCCCCCCOCC(=O)Nc2ccc(C(=O)Nc3ccccc3N)cc2)C(C)(C)C)cc1 : 58
Cc1ncsc1-c1ccc(CNC(=O)[C@@H]2C[C@@H](O)CN2C(=O)[C@@H](NC(=O)CCCCCCCCCCC(=O)Nc2ccc(C(=O)Nc3ccc(F)cc3N)cc2)C(C)(C)C)cc1 : 21
Cc1ncsc1-c1ccc(CNC(=O)[C@@H]2C[C@@H](O)CN2C(=O)[C@@H](NC(=O)COCCCCCCCCC(=O)Nc2ccc(C(=O)Nc3ccccc3N)cc2)C(C)(C)C)cc1 : 52

(I) CN[C@@H](C)C(=O)N[C@H](C(=O)N1CCC[C@H]1c1nc(C(=O)c2cccc(OCCCCCCCCCCCC(=O)Nc3ccc(C(=O)Nc4ccccc4N)cc3)c2)cs1)C1CCCCC1
(II) Cc1ncsc1-c1ccc(CNC(=O)[C@@H]2C[C@@H](O)CN2C(=O)[C@@H](NC(=O)C2(F)CC2)C(C)(C)C)c(OCCCCCCCCCCCC(=O)Nc2ccc(C(=O)Nc3ccccc3N)cc2)c1
I would appreciate it if you could say which entry, I or II , has the lower Dmax value. # respond with the chosen item's label
I

* * *

# target.entity: HDAC3 (Homo sapiens, UniProt O15379)
# Construct: endogenous in cells; host or cells: HCT116
# Sequence (O15379 whole entry): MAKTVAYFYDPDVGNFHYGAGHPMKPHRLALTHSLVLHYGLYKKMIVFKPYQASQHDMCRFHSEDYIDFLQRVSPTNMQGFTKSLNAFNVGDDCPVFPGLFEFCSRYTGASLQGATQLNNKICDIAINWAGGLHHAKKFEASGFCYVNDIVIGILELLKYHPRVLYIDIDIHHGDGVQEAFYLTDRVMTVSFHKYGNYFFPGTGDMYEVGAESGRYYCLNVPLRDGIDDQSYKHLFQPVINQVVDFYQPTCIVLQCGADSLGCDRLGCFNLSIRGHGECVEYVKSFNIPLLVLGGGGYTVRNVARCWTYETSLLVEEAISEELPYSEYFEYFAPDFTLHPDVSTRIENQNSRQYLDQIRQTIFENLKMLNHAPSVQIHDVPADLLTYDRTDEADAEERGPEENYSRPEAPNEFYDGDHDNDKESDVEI
# assay.procedure: HDAC3 degradation in HCT116 cells, quantitative western blot
# Type: cell-based
# measurement.context: HCT-116, 24 h; HCT116, screened at 0.1, 1 and 10 μM; maximum degradation irrespective of concentration; read-out: HDAC 3 degrader (% Degradation)
reported.endpoint: Dmax (%)

Cc1ncsc1-c1ccc(CNC(=O)[C@@H]2C[C@@H](O)CN2C(=O)[C@@H](NC(=O)CCCCCCCCCCC(=O)Nc2ccc(C(=O)Nc3ccccc3N)cc2)C(C)(C)C)cc1 : 63
Cc1ncsc1-c1ccc(CNC(=O)[C@@H]2C[C@@H](O)CN2C(=O)[C@@H](NC(=O)C2(F)CC2)C(C)(C)C)c(OCCCCCCCCCCCC(=O)Nc2ccc(C(=O)Nc3ccccc3N)cc2)c1 : 69
Cc1ncsc1-c1ccc(CNC(=O)[C@@H]2C[C@@H](O)CN2C(=O)[C@@H](NC(=O)CCCCCCCn2cc(COC(=O)NCc3ccc(C(=O)Nc4ccccc4N)cc3)nn2)C(C)(C)C)cc1 : 64
CN[C@@H](C)C(=O)N[C@H](C(=O)N1C[C@@H](NC(=O)CCCCCCCCCCC(=O)Nc2ccc(C(=O)Nc3ccccc3N)cc2)C[C@H]1C(=O)N[C@@H]1CCCc2ccccc21)C1CCCCC1 : 88

* * *

# target.entity: HDAC1 (Homo sapiens)
# Construct: endogenous in cells; host or cells: HCT116
# assay.procedure: HDAC1 degradation in HCT116 cells, quantitative western blot
# Type: cell-based
# measurement.context: HCT-116, 24 h; HCT116, screened at 0.1, 1 and 10 μM; maximum degradation irrespective of concentration; read-out: HDAC1 Degrader (% Degradation)
reported.endpoint: Dmax (%)

Cc1ncsc1-c1ccc(CNC(=O)[C@@H]2C[C@@H](O)CN2C(=O)[C@@H](NC(=O)COCCCCCCOCC(=O)Nc2ccc(C(=O)Nc3ccccc3N)cc2)C(C)(C)C)cc1 [PROTAC12] : 42
Cc1ncsc1-c1ccc(CNC(=O)[C@@H]2C[C@@H](O)CN2C(=O)[C@@H](NC(=O)CCCCCCCCCCCCC(=O)Nc2ccc(C(=O)Nc3ccccc3N)cc2)C(C)(C)C)cc1 [PROTAC34] : 47
Cc1ncsc1-c1ccc(CNC(=O)[C@@H]2C[C@@H](O)CN2C(=O)[C@@H](NC(=O)COCCCCCCCCCOCC(=O)Nc2ccc(C(=O)Nc3ccccc3N)cc2)C(C)(C)C)cc1 [PROTAC16] : 67
Cc1ncsc1-c1ccc(CNC(=O)[C@@H]2C[C@@H](O)CN2C(=O)[C@@H](NC(=O)COCCCCCCCCCOCC(=O)Nc2ccc(C(=O)Nc3ccc(F)cc3N)cc2)C(C)(C)C)cc1 [PROTAC20] : 51
Cc1ncsc1-c1ccc(CNC(=O)[C@@H]2C[C@@H](O)CN2C(=O)[C@@H](NC(=O)CCCCCCCn2cc(COC(=O)NCc3ccc(C(=O)Nc4ccccc4N)cc3)nn2)C(C)(C)C)cc1 [PROTAC29] : 39
CN[C@@H](C)C(=O)N[C@H](C(=O)N1C[C@@H](NC(=O)CCCCCCCCCCC(=O)Nc2ccc(C(=O)Nc3ccccc3N)cc2)C[C@H]1C(=O)N[C@@H]1CCCc2ccccc21)C1CCCCC1 [PROTAC26] : 88
